assay: Phase I trial, monotherapy and carboplatin combination: pharmacokinetics; assay type: in vivo, human; settings: human, plasma; IV, patients; read-out: Median half-life (converted)
QUANTITY: half-life (h)

>>> number("CNCc1ccc(-c2cc(-c3nc(-c4ccc(S(=O)(=O)C(C)C)cc4)cnc3N)on2)cc1")
16

Numbers sourced from patent US20230106592A1.
